Biological target: T1, rat NPR1-ANP complex (rat)
T1 construct: Rat receptor antigen measured in the presence of ANP; also called rNPR1 + ANP; rNPR1-ANP-complex
T1 sequence (P18910 29-469, one chain of several): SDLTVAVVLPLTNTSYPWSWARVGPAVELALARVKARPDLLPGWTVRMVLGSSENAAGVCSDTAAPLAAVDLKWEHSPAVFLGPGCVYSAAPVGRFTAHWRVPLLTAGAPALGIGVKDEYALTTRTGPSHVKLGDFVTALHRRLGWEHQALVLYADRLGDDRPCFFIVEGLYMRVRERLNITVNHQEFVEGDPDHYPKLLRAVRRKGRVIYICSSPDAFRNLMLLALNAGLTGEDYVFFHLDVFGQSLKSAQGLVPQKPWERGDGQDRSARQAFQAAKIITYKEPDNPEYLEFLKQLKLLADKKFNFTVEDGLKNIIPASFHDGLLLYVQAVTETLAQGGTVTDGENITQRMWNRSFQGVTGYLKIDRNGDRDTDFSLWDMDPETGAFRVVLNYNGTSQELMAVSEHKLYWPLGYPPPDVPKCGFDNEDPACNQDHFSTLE
Assay: ELISA, 1 uM IgG, +100 nM ANP
READOUT KIND: ELISA IgG binding at 1 uM IgG (unit not given)
I only need the number, thanks.

Return reported ELISA IgG binding at 1 uM IgG (unit not given); argument: YY05 IgG (YY05_LALA) (antibody, V domains shown) VH: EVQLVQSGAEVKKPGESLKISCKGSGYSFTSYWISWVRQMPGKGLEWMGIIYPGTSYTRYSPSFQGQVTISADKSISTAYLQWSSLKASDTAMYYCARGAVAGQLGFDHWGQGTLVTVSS VL: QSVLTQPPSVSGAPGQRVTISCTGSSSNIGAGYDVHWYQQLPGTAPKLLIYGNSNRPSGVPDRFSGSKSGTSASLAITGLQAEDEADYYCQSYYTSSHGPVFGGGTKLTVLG
16

Reported ELISA IgG binding at 1 uM IgG (unit not given), binder YY04 IgG (YY04_LALA) (antibody, V domains shown) VH: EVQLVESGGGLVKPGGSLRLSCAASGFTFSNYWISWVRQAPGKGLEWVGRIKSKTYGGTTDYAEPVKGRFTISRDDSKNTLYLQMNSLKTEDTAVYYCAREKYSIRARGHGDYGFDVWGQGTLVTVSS VL: DIQMTQSPSSLSASVGDRVTITCRASQGISNYLAWYQQKPGKVPKLLIYAASTLQSGVPSRFSGSGSGTDFTLTISSLQPEDVATYYCQQGYHAPFTFGQGTKVEIKR : ____
54

Recorded ELISA IgG binding at 1 uM IgG (unit not given) for YY06 IgG (YY06_LALA) (antibody, V domains shown) VH: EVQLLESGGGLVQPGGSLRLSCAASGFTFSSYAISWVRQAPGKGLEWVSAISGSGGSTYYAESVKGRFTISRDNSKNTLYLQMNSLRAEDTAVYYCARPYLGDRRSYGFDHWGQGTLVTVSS VL: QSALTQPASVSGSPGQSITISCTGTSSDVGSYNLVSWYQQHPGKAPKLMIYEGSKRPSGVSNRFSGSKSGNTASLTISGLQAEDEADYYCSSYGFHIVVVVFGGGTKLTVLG , please?
4

Quick one: ELISA IgG binding at 1 uM IgG (unit not given) for YY01 IgG (YY01_LALA) (antibody, V domains shown) VH: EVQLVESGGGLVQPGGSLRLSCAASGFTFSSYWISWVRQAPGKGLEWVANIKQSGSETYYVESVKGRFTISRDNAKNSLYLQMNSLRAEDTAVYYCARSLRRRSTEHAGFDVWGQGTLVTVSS VL: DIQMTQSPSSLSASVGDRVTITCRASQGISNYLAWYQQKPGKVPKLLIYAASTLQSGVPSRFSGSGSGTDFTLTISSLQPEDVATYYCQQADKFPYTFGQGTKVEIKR ?
50

Origin of the recorded values: patent US20200392225A1
